system: human α-thrombin (Homo sapiens (Human), UniProt P00734)
method-notes: Enzymatic assay for thrombin (Boc-VPR-AMC substrate)
Format: biochemical
reported-conditions: +EDTA; read-out: Thrombin Ki
Structures can show the parent of a compound that is named as a salt.
In this section, each of the compounds is paired with its reported Ki.

{"columns": ["compound", "Ki"],
 "data": [
  ["N=C(N)c1ccc2[nH]c(-c3cccc(-c4ccc(F)cc4)n3)nc2c1 [compound 2016, dihydrochloride]", "< 25 µM"],
  ["Cc1ccc(-c2nc3cc(C(=N)N)ccc3[nH]2)nc1 [compound 2010, dihydrochloride]", "< 25 µM"],
  ["N=C(N)c1ccc2[nH]c(-c3cc4ccccc4cn3)nc2c1 [compound 2014, dihydrochloride]", "< 25 µM"],
  ["Nc1ccc2[nH]c(Cc3nc4cc(N)ccc4[nH]3)nc2c1", "> 25 µM"]
]}

====

In this section, each of the molecules is paired with its reported Ki.
system: human α-thrombin (Homo sapiens (Human), UniProt P00734)
method-notes: Enzymatic assay for thrombin (Boc-VPR-AMC substrate)
Assay type: biochemical
reported-conditions: read-out: Thrombin Ki
Where a name gives a salt, the structure may show the parent alone.
measured-endpoint: Ki

{"columns": ["molecule", "system", "result"],
 "data": [
  ["N=C(N)c1ccc(CNC(=O)[C@@H]2CCN2C(=O)[C@@H](CC2CCCCC2)NCC(=O)O)cc1 [compound 1114]", "human α-thrombin (Homo sapiens (Human), UniProt P00734)", "< 0.5 µM"],
  ["Cc1nc(N)ccc1CNC(=O)[C@H](C)NC(=O)[C@H]1C[C@@H](c2ccccc2)CCN1CCCC(=O)O [compound 1439, Trifluoroacetate salt]", "human α-thrombin (Homo sapiens (Human), UniProt P00734)", "> 25 µM"],
  ["C[C@H](NC(=O)[C@@H](CCc1ccccc1)NCC(C)(C)C)C(=O)NCc1ccc(C(=N)N)cc1 [compound 1126]", "human α-thrombin (Homo sapiens (Human), UniProt P00734)", "< 0.5 µM"],
  ["C[C@H](NC(=O)[C@H]1C[C@H](Cc2ccc(-c3cccnc3)cc2)CN1)C(=O)NCc1cc(Cl)ccc1-n1cnnn1 [compound 1404, Hydrochloride]", "human α-thrombin (Homo sapiens (Human), UniProt P00734)", "< 0.5 µM"],
  ["C[C@H](NC(=O)[C@H]1C[C@H](c2ccccc2)CN1)C(=O)NCC1CCc2nc(N)sc2C1 (stereo partly drawn) [compound 1281]", "human α-thrombin (Homo sapiens (Human), UniProt P00734)", "> 25 µM"],
  ["Cc1cnc(NCCc2ccccc2)c(=O)n1CC(=O)NCc1cc(Cl)ccc1-n1cnnn1 [compound 1489]", "human α-thrombin (Homo sapiens (Human), UniProt P00734)", "< 0.5 µM"],
  ["N=C(N)c1ccc(CNC(=O)[C@@H]2CCN2C(=O)[C@H](O)C2CCCCC2)cc1 [compound 1020]", "human α-thrombin (Homo sapiens (Human), UniProt P00734)", "< 0.5 µM"],
  ["C[C@H](NC(=O)[C@H]1C[C@H](Cc2ccccc2-c2ccc(Cl)s2)CN1)C(=O)NCc1cc(Cl)ccc1-n1cnnn1 [compound 1409, Trifluoroacetate]", "human α-thrombin (Homo sapiens (Human), UniProt P00734)", "< 0.5 µM"],
  ["C[C@H](NC(=O)[C@H]1C[C@H](c2ccccc2)CN1)C(=O)NCc1ccn2ccnc2c1 [compound 1366, Dihydrochloride]", "human α-thrombin (Homo sapiens (Human), UniProt P00734)", "> 25 µM"],
  ["Cc1nc2cc(CNC(=O)[C@H](C)NC(=O)[C@H]3C[C@H](c4ccccc4)CN3)cc(Cl)c2[nH]1 [compound 1418, Trifluoroacetate salt]", "human α-thrombin (Homo sapiens (Human), UniProt P00734)", "> 25 µM"],
  ["CCOC(=O)NC(=N)c1ccc(CNC(=O)[C@H](C)NC(=O)[C@H]2C[C@H](c3ccccc3)CN2)cc1 [compound 1294]", "human α-thrombin (Homo sapiens (Human), UniProt P00734)", "> 25 µM"],
  ["Cc1cccc(CC[C@@H](N)C(=O)N[C@@H](C)C(=O)NCc2ccc(C(=N)N)cc2)c1 [compound 1046]", "human α-thrombin (Homo sapiens (Human), UniProt P00734)", "< 0.5 µM"],
  ["C[C@H](NC(=O)[C@H](N)CCc1ccccc1)C(=O)NCc1cc(Cl)ccc1Cl [compound 1192]", "human α-thrombin (Homo sapiens (Human), UniProt P00734)", "> 25 µM"],
  ["C[C@H](NC(=O)[C@@H](CCc1ccccc1)NC1CCC1)C(=O)NCc1ccc(C(=N)N)cc1 [compound 1108]", "human α-thrombin (Homo sapiens (Human), UniProt P00734)", "< 0.5 µM"],
  ["C[C@H](NC(=O)[C@H](N)CCc1ccccc1)C(=O)NCc1cc(Cl)ccc1CO [compound 1287]", "human α-thrombin (Homo sapiens (Human), UniProt P00734)", "> 25 µM"],
  ["C[C@H](NC(=O)[C@@H](CCc1ccccc1)NCCCc1cccc(O)c1)C(=O)NCc1ccc(C(=N)N)cc1 [compound 1312, Di-trifluoroacetate salt]", "human α-thrombin (Homo sapiens (Human), UniProt P00734)", "< 0.5 µM"],
  ["C[C@H](NC(=O)[C@H](N)CCc1ccccc1)C(=O)NCCOc1ccc(N)nc1 [compound 1215]", "human α-thrombin (Homo sapiens (Human), UniProt P00734)", "> 25 µM"],
  ["COc1cccc(CC[C@@H](N)C(=O)N[C@@H](C)C(=O)NCc2ccc(C(=N)N)cc2)c1 [compound 1075]", "human α-thrombin (Homo sapiens (Human), UniProt P00734)", "< 0.5 µM"],
  ["Cc1cc(CNC(=O)[C@H](C)NC(=O)[C@H](N)CCc2ccccc2)cnc1N [compound 1244]", "human α-thrombin (Homo sapiens (Human), UniProt P00734)", "> 25 µM"],
  ["C[C@H](NC(=O)[C@H]1C[C@@H](c2ccccc2)CCN1)C(=O)NCc1ccc(N)nc1 (stereo in doubt) [compound 1025]", "human α-thrombin (Homo sapiens (Human), UniProt P00734)", "> 25 µM"],
  ["C[C@H](NC(=O)[C@@H](CCc1ccccc1)NCCc1ccc(O)cc1)C(=O)NCc1ccc(C(=N)N)cc1 [compound 1327, dihydrochloride]", "human α-thrombin (Homo sapiens (Human), UniProt P00734)", "< 0.5 µM"],
  ["Cc1nc(N)ccc1CNC(=O)[C@H](C)NC(=O)[C@H]1C[C@H](Cc2ccc(-c3cccnc3)cc2)CN1 [compound 1357, Di-trifluoroacetate salt]", "human α-thrombin (Homo sapiens (Human), UniProt P00734)", "> 25 µM"],
  ["Cc1cccc([C@H]2CN[C@@H](C(=O)N[C@@H](C)C(=O)NCc3ccc(N)nc3C)C2)c1 [compound 1257]", "human α-thrombin (Homo sapiens (Human), UniProt P00734)", "> 25 µM"],
  ["Cc1nc(N)ccc1CNC(=O)[C@H](C)NC(=O)[C@H]1C[C@H](Cc2cc(C(F)(F)F)cc(C(F)(F)F)c2)CN1 [compound 1424, Di-trifluoroacetate salt]", "human α-thrombin (Homo sapiens (Human), UniProt P00734)", "< 0.5 µM"],
  ["C[C@H](NC(=O)[C@H](N)C/C=C/c1ccccc1)C(=O)NCc1ccc(N)nc1 [compound 1261]", "human α-thrombin (Homo sapiens (Human), UniProt P00734)", "> 25 µM"],
  ["C[C@H](NC(=O)[C@@H](CCc1ccccc1)NCc1ccccc1)C(=O)NCc1ccc(C(=N)N)cc1 [compound 1134]", "human α-thrombin (Homo sapiens (Human), UniProt P00734)", "< 0.5 µM"],
  ["C[C@H](NC(=O)[C@H](N)CCc1ccccc1)C(=O)NCCc1ccnc(N)c1 [compound 1016, Dihydrochloride]", "human α-thrombin (Homo sapiens (Human), UniProt P00734)", "> 25 µM"]
]}

====

system: human α-thrombin (Homo sapiens (Human), UniProt P00734)
method-notes: Enzymatic assay for thrombin (Boc-VPR-AMC substrate)
Assay type: biochemical
reported-conditions: read-out: Thrombin Ki
Counter-ions that a name gives are not always drawn.

{"columns": ["molecule", "Ki"],
 "data": [
  ["Cc1nc(N)ccc1CNC(=O)[C@H](C)NC(=O)[C@H]1C[C@H](Cc2nc3cc(Cl)ccc3s2)CN1 [compound 1460, Di-trifluoroacetate salt]", "> 25 µM"],
  ["C[C@H](NC(=O)[C@H](N)CCc1ccccc1)C(=O)NCCc1ccc(N)nc1 [compound 1015, Dihydrochloride]", "> 25 µM"],
  ["CC[C@H](NC(=O)[C@H](NCC(=O)O)C1CCCCC1)C(=O)NCc1ccc(C(=N)N)cc1", "< 0.5 µM"],
  ["CC[C@H](NC(=O)[C@H](N)CCc1ccccc1)C(=O)NCc1ccc(C(=N)N)cc1", "< 0.5 µM"],
  ["Cc1cc(Cl)cc(CNC(=O)[C@H](C)NC(=O)[C@H]2C[C@H](Cc3ccccc3-c3ccccc3)CN2)c1O [compound 1401, Hydrochloride]", "> 25 µM"],
  ["C[C@H](NC(=O)[C@H]1C[C@H](c2ccccc2)CN1)C(=O)NCc1ccc(C(=N)NC(=O)OCC(Cl)(Cl)Cl)cc1", "> 25 µM"],
  ["C[C@H](NC(=O)[C@H](N)CCc1ccccc1)C(=O)NCc1ccc2nc(N)[nH]c2c1 (single isomer, unassigned) [compound 1040, Di-trifluoroacetate salt]", "> 25 µM"]
]}
